Target: Neuropeptide Y receptor type 1 (Homo sapiens, UniProt P25929)
Sequence (P25929 whole entry): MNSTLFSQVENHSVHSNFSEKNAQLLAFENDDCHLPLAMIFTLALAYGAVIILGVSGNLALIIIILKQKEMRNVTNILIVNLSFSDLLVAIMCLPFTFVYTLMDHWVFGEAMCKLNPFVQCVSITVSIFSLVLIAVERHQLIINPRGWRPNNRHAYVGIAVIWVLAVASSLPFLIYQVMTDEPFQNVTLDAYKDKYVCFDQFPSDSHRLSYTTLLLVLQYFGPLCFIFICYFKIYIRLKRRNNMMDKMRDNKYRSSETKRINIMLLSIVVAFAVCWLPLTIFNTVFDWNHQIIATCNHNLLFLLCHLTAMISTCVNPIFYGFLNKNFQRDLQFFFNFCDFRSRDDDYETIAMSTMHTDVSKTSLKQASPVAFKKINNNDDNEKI
Experiment: Inhibition of binding of [3H]propionyl-NPY (1 nM) to Neuropeptide Y receptor type 1 in SK-N-MC cells
Type: cell-based
# IC50 per record follows
Answers without a unit are incomplete; give the number and then its unit.

[
  {
    "Compound": "N=C(N)NCCCC(NC(=O)C(c1ccccc1)c1ccccc1)C(=O)N[C@@H](C(N)=O)c1ccccc1 (some centres undefined)",
    "Test System": "Neuropeptide Y receptor type 1 (Homo sapiens, UniProt P25929)",
    "IC50": "2.4 µM"
  }
]

Problem: I'd like to know its IC50. The compound in question is N=C(N)NCCCC(NC(=O)C(c1ccccc1)c1ccccc1)C(=O)N1CCCc2cc(O)ccc2C1 (centres undefined)
Result: 0.67 µM

Problem: For the compound shown here, N=C(N)NCCCC(NC(=O)C(c1ccccc1)c1ccc(Cl)cc1)C(=O)N[C@H]1CCc2ccccc21 (some centres undefined) , give the reported IC50.
Result: 5.3 µM

Problem: Reported IC50 for C[C@@H](NC(=O)C(CCCNC(=N)N)NC(=O)C(c1ccccc1)c1ccccc1)c1ccccc1 (some centres undefined) : what is it?
Result: 0.15 µM
